Data origin, for the record: patent US20140228377A1

- systemTested: orexin-2 receptor (hOX2R) (Homo sapiens)
- Construct: expressed in transfected cells; host or cells: Chinese hamster ovary (CHO) cells
- assayMethodText: Orexin antagonistic activity assay (intracellular Ca2+, FDSS) in CHO cells expressing hOX2R
- Assay type: cell-based
- conditionNotes: CHO cells expressing hOX2R; ligand peptide 3 nM; Fluo-3 maximum fluorescence intensity; read-out: IC50 value OX2
- Procedure: The antagonistic activity of each test compound against human orexin-1 receptor (hOX1R) and orexin-2 receptor (hOX2R) was assayed by a modification of a method described in the literature (Toshikatsu Okumura et al., Biochemical and Biophysical Research Communications 280, 976-981, 2001). […]
pIC50: −log10 of the molar value.
parameter: pIC50

Known pIC50 results, listed for orientation:
C[C@@H]1CC[C@@H](c2nc3cc(F)ccc3o2)CN1C(=O)c1cc(F)ccc1-c1ncccn1 : 8.09
Cc1ccc(-c2ncccn2)c(C(=O)N2C[C@H](c3nc4cc(F)ccc4o3)CC[C@H]2C)c1 (single isomer, unassigned) : 8.68
Cc1ccc(-n2nccn2)c(C(=O)N2C[C@H](c3nc4c(Cl)cccc4o3)CC[C@H]2C)c1 : 8.34
Cc1ccc(-c2ncccn2)c(C(=O)N2C[C@H](c3nc4ccc(Cl)cc4o3)CC[C@H]2C)c1 : 7.64
Cc1ccc(-n2nccn2)c(C(=O)N2C[C@H](c3nc4cc(F)ccc4o3)CC[C@H]2C)c1 (single isomer, unassigned) : 8.31

P: C[C@@H]1CC[C@@H](c2nc3cc(Cl)ccc3o2)CN1C(=O)c1cc(F)ccc1-c1ncccn1 (single isomer, unassigned)
Q: C[C@@H]1CC[C@@H](c2nc3c(Cl)cccc3o2)CN1C(=O)c1cc(F)ccc1-c1ncccn1
R: Cc1ccc(-c2ncccn2)c(C(=O)N2C[C@H](c3nc4cc(OC(F)(F)F)ccc4o3)CC[C@H]2C)c1
Rank items: key pIC50, increasing. Respond with an ordered listing of the labels, as requested. R, Q, P

a: C[C@@H]1CC[C@@H](c2nc3ccc(Cl)cc3o2)CN1C(=O)c1ccc(F)cc1-n1nccn1
b: Cc1ccc(-c2ncccn2)c(C(=O)N2C[C@H](c3nc4ccc(F)c(F)c4o3)CC[C@H]2C)c1
Smaller pIC50 value, a vs b ? Use the label to indicate which entry you chose. a
(a: 7.78, b: 8.04)

1: Cc1ccc(-n2nccn2)c(C(=O)N2C[C@H](c3nc4cc(F)cc(F)c4o3)CC[C@H]2C)c1
2: Cc1ccc(-n2nccn2)c(C(=O)N2C[C@H](c3nc4ccc(F)c(F)c4o3)CC[C@H]2C)c1
I need your help: which of the pair 1 , 2 has higher pIC50? // caller expects the label of the chosen entry 1
(1: 8.37, 2: 8.03)

---

- systemTested: orexin-2 receptor (hOX2R) (Homo sapiens)
- Construct: expressed in transfected cells; host or cells: Chinese hamster ovary (CHO) cells
- Sequence (O43614 1-444): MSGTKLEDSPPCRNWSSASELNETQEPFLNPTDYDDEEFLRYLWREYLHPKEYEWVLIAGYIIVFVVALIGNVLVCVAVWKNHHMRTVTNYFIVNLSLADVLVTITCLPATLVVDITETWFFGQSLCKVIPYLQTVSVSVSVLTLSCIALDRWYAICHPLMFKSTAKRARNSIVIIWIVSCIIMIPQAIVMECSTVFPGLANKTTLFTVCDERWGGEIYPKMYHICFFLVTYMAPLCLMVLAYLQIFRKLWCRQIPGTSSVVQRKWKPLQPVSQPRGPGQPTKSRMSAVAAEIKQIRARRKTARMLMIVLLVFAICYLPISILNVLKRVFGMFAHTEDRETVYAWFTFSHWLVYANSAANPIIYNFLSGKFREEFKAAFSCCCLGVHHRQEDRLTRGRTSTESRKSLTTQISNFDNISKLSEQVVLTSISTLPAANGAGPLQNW
- assayMethodText: Orexin antagonistic activity assay (intracellular Ca2+, FDSS) in CHO cells expressing hOX2R
- Format: cell-based
- conditionNotes: CHO cells expressing hOX2R; ligand peptide 3 nM; Fluo-3 maximum fluorescence intensity; read-out: IC50 value OX2
parameter: IC50 (nM)

a: Cc1ccc(-c2ncccn2)c(C(=O)N2C[C@H](c3nc4cc(C#N)ccc4o3)CC[C@H]2C)c1
b: C[C@@H]1CC[C@@H](c2nc3cc(Cl)ccc3o2)CN1C(=O)c1cc(F)ccc1-n1nccn1 (single isomer, unassigned)
c: Cc1ccc(-c2ncccn2)c(C(=O)N2C[C@H](c3nc4cc(F)cc(F)c4o3)CC[C@H]2C)c1
Ascending by IC50, please. Order the labels as requested and list them. c, b, a

a: Cc1ccc(-c2ncccn2)c(C(=O)N2C[C@H](c3nc4cc(Cl)ccc4o3)CC[C@H]2C)c1 (single isomer, unassigned)
b: C[C@@H]1CC[C@@H](c2nc3cc(F)ccc3o2)CN1C(=O)c1ccc(F)cc1-n1nccn1
c: Cc1ccc(-c2ncccn2)c(C(=O)N2C[C@H](c3nc4c(F)cccc4o3)CC[C@H]2C)c1
Rank the items in ascending order with respect to IC50. Provide your answer as the labels ordered per the instruction. a, b, c
(a: 4.3 nM, b: 8.4 nM, c: 25.9 nM)

---

- systemTested: human orexin-1 receptor (hOX1R) (Homo sapiens, UniProt O43613)
- Construct: expressed in transfected cells; host or cells: Chinese hamster ovary (CHO) cells
- Sequence (O43613 1-425): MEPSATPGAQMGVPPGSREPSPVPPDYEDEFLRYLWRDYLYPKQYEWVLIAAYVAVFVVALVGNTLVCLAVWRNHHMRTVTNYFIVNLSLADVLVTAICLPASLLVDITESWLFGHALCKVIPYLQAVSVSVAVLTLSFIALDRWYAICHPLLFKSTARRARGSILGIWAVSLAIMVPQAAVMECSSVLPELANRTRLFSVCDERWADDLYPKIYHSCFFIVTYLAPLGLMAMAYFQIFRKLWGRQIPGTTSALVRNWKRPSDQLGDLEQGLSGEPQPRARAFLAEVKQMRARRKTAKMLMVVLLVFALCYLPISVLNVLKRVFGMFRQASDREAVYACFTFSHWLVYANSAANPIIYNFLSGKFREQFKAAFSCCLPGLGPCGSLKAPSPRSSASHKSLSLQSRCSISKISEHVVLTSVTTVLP
- assayMethodText: Orexin antagonistic activity assay (intracellular Ca2+, FDSS) in CHO cells expressing hOX1R
- Assay type: cell-based
- conditionNotes: CHO cells expressing hOX1R; ligand peptide 300 pM; Fluo-3 maximum fluorescence intensity; read-out: IC50 value OX1
pIC50: −log10 of the molar value.
parameter: pIC50

Reference set (5 entries):
COc1cnc(-c2ccc(F)cc2C(=O)N2C[C@H](c3nc4cc(Cl)ccc4o3)CC[C@H]2C)nc1 : 7.00
C[C@@H]1CC[C@@H](c2nc3cc(F)ccc3o2)CN1C(=O)c1cc(Cl)ccc1-c1ncccn1 : 7.35
Cc1ccc(-n2nccn2)c(C(=O)N2C[C@H](c3nc4cc(C(F)(F)F)ccc4o3)CC[C@H]2C)c1 : 8.05
Cc1ccc(-c2ncccn2)c(C(=O)N2C[C@H](c3nc4cc(OC(F)(F)F)ccc4o3)CC[C@H]2C)c1 : 6.75
Cc1ccc(-n2nccn2)c(C(=O)N2C[C@H](c3nc4cc(F)c(F)cc4o3)CC[C@H]2C)c1 : 8.01

1: C[C@@H]1CC[C@@H](c2nc3c(Cl)cccc3o2)CN1C(=O)c1cc(F)ccc1-c1ncccn1
2: C[C@@H]1CC[C@@H](c2nc3cc(F)ccc3o2)CN1C(=O)c1cc(Cl)ccc1-n1nccn1
3: Cc1ccc(-n2nccn2)c(C(=O)N2C[C@H](c3nc4cc(OC(F)(F)F)ccc4o3)CC[C@H]2C)n1
4: C[C@@H]1CC[C@@H](c2nc3cc(Cl)ccc3o2)CN1C(=O)c1cc(Br)ccc1-n1nccn1
5: C[C@@H]1CC[C@@H](c2nc3cc(Cl)ccc3o2)CN1C(=O)c1cccc(F)c1-n1nccn1
// sort entries: pIC50, high to low Write the labels in rank order as requested. 1, 4, 2, 5, 3

P: Cc1ccc(C(=O)N2C[C@H](c3nc4cc(Cl)ccc4o3)CC[C@H]2C)c(-n2nccn2)c1
Q: C[C@@H]1CC[C@@H](c2nc3ccc(F)cc3o2)CN1C(=O)c1cc(Cl)ccc1-c1ncccn1
R: C[C@@H]1CC[C@@H](c2nc3ccc(Cl)cc3o2)CN1C(=O)c1c(F)cccc1-n1nccn1
S: C[C@@H]1CC[C@@H](c2nc3cc(C(F)(F)F)ccc3o2)CN1C(=O)c1cc(F)ccc1-c1ncccn1
T: Cc1ccc(-n2nccn2)c(C(=O)N2C[C@H](c3nc4c(F)cccc4o3)CC[C@H]2C)c1
Rank by pIC50 (largest to smallest). Please write the labels in the order that was asked for. P, T, R, Q, S
(P: 7.96, T: 7.44, R: 7.23, Q: 6.99, S: 6.09)

A: C[C@@H]1CC[C@@H](c2nc3cc(Cl)ccc3o2)CN1C(=O)c1cc(C(F)(F)F)ccc1-n1nccn1
B: C[C@@H]1CC[C@@H](c2nc3cc(Cl)ccc3o2)CN1C(=O)c1ccc(Cl)cc1-n1nccn1
Select the item whose pIC50 value is smaller, choosing between A and B . Please respond with the label that marks your chosen entry. B
(B: 5.75, A: 6.97)
